# experimental.target: UniProt P11474
# Sequence (P11474 193-421 limits assumed, species assumed): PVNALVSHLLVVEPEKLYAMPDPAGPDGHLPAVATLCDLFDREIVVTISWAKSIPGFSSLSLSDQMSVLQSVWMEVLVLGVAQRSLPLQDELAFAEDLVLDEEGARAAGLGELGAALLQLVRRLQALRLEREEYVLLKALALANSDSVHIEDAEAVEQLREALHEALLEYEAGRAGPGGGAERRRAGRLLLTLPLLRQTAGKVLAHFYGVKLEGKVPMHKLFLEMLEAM
# experiment: ThermoFluor thermal shift assay, ERRα
# Format: binding
# condition.summary: 100 μM test compound; 0.1 mg/mL protein, 25 mM HEPES pH 8.0, 25 μM ANS, 2% DMSO; Tm free protein 54.4 °C; read-out: ΔTm, thermal stabilization of ERRα
experimental.readout: ΔTm at 100 µM (°C)

compound | experimental.readout | recorded.value
C[C@]12CC[C@@H]3c4ccc(O)cc4C[C@@H](CCCCCCCCC[S+]([O-])CCCC(F)(F)C(F)(F)F)[C@H]3[C@@H]1CC[C@@H]2O (stereo partly drawn) | ΔTm at 100 µM | 0
CC(C)(c1ccc(O)cc1)c1ccc(O)cc1 | ΔTm at 100 µM | 0
CCc1cc(O)ccc1Cl | ΔTm at 100 µM | 0.2
O=c1c(-c2ccc(O)cc2)coc2cc(O)ccc12 | ΔTm at 100 µM | 0
C[C@]12CC[C@H]3[C@@H](CCC4=C[C@H](O)CC[C@@H]43)[C@@H]1CC[C@@H]2O | ΔTm at 100 µM | 0
Cc1cc(O)ccc1Cl | ΔTm at 100 µM | 0.1
